Molecular target: SfurOBP2 (Sogatella furcifera)
Sequence (V5T759 entry or part of it): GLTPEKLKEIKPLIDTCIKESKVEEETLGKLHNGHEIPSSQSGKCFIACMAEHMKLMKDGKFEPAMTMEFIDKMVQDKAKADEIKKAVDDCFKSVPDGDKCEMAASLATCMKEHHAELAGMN
Assay: biochemical
Type: binding
Settings: ligand concentration 18 (unit not given), replicate column 3 of 3
Procedure: Thirty-six rice odorants ([He et al., 2014]; [Wang et al., 2017]) and 1-N-phenyl-naphthylamine (1-NPN) were purchased from Sigma-Aldrich (St Louis, MO, USA). […] Fluorescence competitive binding assays were performed on Tecan Spark 10M (Tecan Group Ltd., Männedorf, Switzerland) with the F96 Black ELIAS Plate (Sangon) ([Khuhro et al., 2017]; [Liu et al., 2017]). The solutions were excited at 337 nm and emission spectra were recorded between 390 and 490 nm. […]
Returns one of rule met or rule not met; rule met when Fluorescence competitive binding assay, OBP2 (raw fluorescence reading) is >= 20000.

C[C@@H]1CC[C@H]2C(C)(C)[C@H]3C[C@@]12CC[C@@]3(C)O [cedrol]; rule met
CCCCCCCCCCCCCC [n-tetradecane]; rule met
CCCCCCCCCCCCCCCCCC [n-octadecane]; rule met
CCCCCCCC [n-octane]; rule not met
COC(=O)c1ccccc1 [benzoic acid methylester]; rule not met

query: # check: Fluorescence competitive binding assay, OBP2 (raw fluorescence reading) of CC(=O)c1ccccc1 [acetophenone] is greater than or equal to 20000
result: rule not met

query: # check: Fluorescence competitive binding assay, OBP2 (raw fluorescence reading) of CCCCCCCCC=O [nonanal] is greater than or equal to 20000
result: rule not met

query: # check: Fluorescence competitive binding assay, OBP2 (raw fluorescence reading) of CCCCCCCCCCCCC=O [tridecanal] is greater than or equal to 20000
result: rule not met

query: # check: Fluorescence competitive binding assay, OBP2 (raw fluorescence reading) of CC1=CC[C@@H](C(C)(C)O)CC1 [α-terpineol] is greater than or equal to 20000
result: rule not met

query: # check: Fluorescence competitive binding assay, OBP2 (raw fluorescence reading) of CCCCCCCCCCCCO [lauryl alcohol] is greater than or equal to 20000
result: rule not met

query: # check: Fluorescence competitive binding assay, OBP2 (raw fluorescence reading) of CC/C=C\CCO [(Z)-3-hexenol] is greater than or equal to 20000
result: rule not met

---

Molecular target: UniProtKB V5T6E3
Sequence (V5T6E3 entry or part of it): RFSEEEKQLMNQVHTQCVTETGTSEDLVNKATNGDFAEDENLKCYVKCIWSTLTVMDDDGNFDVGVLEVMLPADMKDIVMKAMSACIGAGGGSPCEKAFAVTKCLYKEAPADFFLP
Experiment: biochemical
Assay type: binding
Settings: ligand concentration 16, replicate 2
Method: Thirty-six rice odorants ([He et al., 2014]; [Wang et al., 2017]) and 1-N-phenyl-naphthylamine (1-NPN) were purchased from Sigma-Aldrich (St Louis, MO, USA). […] Fluorescence competitive binding assays were performed on Tecan Spark 10M (Tecan Group Ltd., Männedorf, Switzerland) with the F96 Black ELIAS Plate (Sangon) ([Khuhro et al., 2017]; [Liu et al., 2017]). The solutions were excited at 337 nm and emission spectra were recorded between 390 and 490 nm. […]
metric: Fluorescence intensity, fluorescence competitive binding assay, OBP11
Answer with a number only.

Below, 3 molecules whose answers are already recorded.
CCCCCCCCCCCCO; 20499
CCCCCCCCCCCCCCCC(=O)OC [MH(methyl hexadecanoate)]; 53280
O=C(c1ccccc1)c1ccccc1; 15955

query: Find the recorded Fluorescence intensity, fluorescence competitive binding assay, OBP11 belonging to `CC(=O)c1ccccc1` and report it.
result: 19354

query: Find the recorded Fluorescence intensity, fluorescence competitive binding assay, OBP11 belonging to `Cc1ccc(C(C)C)cc1` and report it.
result: 17044

query: Find the recorded Fluorescence intensity, fluorescence competitive binding assay, OBP11 belonging to `COC(=O)c1ccccc1` and report it.
result: 18544
